Form field: pKd (one value per entry).
# tested system: GORASP2, Q9H8Y8
# assay: holdup assay
# Parameters: key: below the threshold = too weak to quantify, mostly under pKd 3.1 to 4
# assay conditions: plain residues with an end cap or a label only (N-terminal biotin on a linker: ado-ado)
attribute measured: pKd

{"binder": "LPHGHSTTRV [NLGN4X, Q8N0W4]", "reading": 3.99}
{"binder": "QPCFNKLFPL [LPXN, O60711]", "reading": 4}
{"binder": "ETQVTAETVI [TMEM225B, P0DP42]", "reading": 3.57}
{"binder": "QGPVETESVV [SLC45A4, Q5BKX6]", "reading": 3.53}
{"binder": "QSARLWETSI [ADAM22, Q9P0K1]", "reading": 3.55}
{"binder": "LPHPHSTTRV [NLGN2, Q8NFZ4]", "reading": 3.92}
{"binder": "SGSLKLMTTV [DACT1, Q9NYF0]", "reading": 4.32}
{"binder": "YYKRPVQEWV [MMP24, Q9Y5R2]", "reading": 5.44}
{"binder": "VDSTVKVWTC [TRAF7, Q6Q0C0]", "reading": 4.88}
{"binder": "YNNCLEILRV [DCAF7, P61962]", "reading": 5.55}
{"binder": "TACCHSETVV [TGFA, P01135]", "reading": 4.05}
{"binder": "RRRESYSTTV [EVI5, O60447]", "reading": 5.13}
{"binder": "HLRARKSEWV [GJD4, Q96KN9]", "reading": 5.57}
